Procedure Details: Effect on Wnt signaling pathway in human SW480 cells harbouring TCF/LEF luciferase reporter gene and SP5-Luc reporter gene incubated for 36 to 48 hrs by luminescence assay
Assay type: cell-based
Measured Attribute: log10 EC50 (log10 of the value in nM)
Use the decimal logarithm of EC50 (nM).

Output log10 EC50 of CNc1nc(NCc2ncccn2)c2c(-c3ccc4ncccc4c3)c[nH]c2n1 1.87

---
Output log10 EC50 of O=C(Nc1ccc(N2CC(CO)(CO)C2)nc1)c1n[nH]c2ccc(-c3cncc(CN4CCCCC4)c3)cc12 3.18

Output log10 EC50 of CC(C)Nc1cncc(-c2ccc3[nH]nc(-c4nc5c(-c6cccnc6)ccnc5[nH]4)c3n2)c1 3.24

Output log10 EC50 of CN1CCC(n2cc(C(=O)Nc3cc4cc(-c5cnc6cc[nH]c6c5)ccc4cn3)cn2)CC1 1.43
